- target: human CYP2C9 (Homo sapiens, UniProt P11712)
- Sequence (P11712 whole entry): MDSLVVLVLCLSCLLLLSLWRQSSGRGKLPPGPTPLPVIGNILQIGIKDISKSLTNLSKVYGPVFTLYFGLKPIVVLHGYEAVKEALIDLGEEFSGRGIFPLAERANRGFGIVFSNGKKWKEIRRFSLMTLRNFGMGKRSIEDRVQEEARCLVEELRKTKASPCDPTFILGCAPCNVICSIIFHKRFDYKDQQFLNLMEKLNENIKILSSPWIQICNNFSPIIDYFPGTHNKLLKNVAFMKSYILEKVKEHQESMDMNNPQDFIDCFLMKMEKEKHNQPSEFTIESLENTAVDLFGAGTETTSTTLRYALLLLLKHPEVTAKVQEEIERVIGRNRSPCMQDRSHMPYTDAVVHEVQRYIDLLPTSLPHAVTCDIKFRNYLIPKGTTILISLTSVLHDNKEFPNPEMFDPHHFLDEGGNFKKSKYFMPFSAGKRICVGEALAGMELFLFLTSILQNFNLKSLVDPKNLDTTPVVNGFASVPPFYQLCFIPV
- run_description: Biological Test Example 9: CYP2C9 inhibition (Invitrogen kit, fluorogenic substrate OOMR)
- Format: in vitro ADME
measurement_label: IC50 (µM)
Your answer should be a plain number; it is taken to be in µM.

Problem: Record C[C@@H](c1ccc(-c2ccn(C3CC3)c(=O)c2)cc1)N1CCC(CC2CC2)(CC(C)(C)O)OC1=O (single isomer, unassigned) [93 Isomer 1] : what is its IC50 with human CYP2C9 (Homo sapiens, UniProt P11712)?
Solution: 28.5

Origin of the recorded values: patent US8754076B2
